Molecular target: T1, natriuretic peptide receptor-B (human)
T1 chain: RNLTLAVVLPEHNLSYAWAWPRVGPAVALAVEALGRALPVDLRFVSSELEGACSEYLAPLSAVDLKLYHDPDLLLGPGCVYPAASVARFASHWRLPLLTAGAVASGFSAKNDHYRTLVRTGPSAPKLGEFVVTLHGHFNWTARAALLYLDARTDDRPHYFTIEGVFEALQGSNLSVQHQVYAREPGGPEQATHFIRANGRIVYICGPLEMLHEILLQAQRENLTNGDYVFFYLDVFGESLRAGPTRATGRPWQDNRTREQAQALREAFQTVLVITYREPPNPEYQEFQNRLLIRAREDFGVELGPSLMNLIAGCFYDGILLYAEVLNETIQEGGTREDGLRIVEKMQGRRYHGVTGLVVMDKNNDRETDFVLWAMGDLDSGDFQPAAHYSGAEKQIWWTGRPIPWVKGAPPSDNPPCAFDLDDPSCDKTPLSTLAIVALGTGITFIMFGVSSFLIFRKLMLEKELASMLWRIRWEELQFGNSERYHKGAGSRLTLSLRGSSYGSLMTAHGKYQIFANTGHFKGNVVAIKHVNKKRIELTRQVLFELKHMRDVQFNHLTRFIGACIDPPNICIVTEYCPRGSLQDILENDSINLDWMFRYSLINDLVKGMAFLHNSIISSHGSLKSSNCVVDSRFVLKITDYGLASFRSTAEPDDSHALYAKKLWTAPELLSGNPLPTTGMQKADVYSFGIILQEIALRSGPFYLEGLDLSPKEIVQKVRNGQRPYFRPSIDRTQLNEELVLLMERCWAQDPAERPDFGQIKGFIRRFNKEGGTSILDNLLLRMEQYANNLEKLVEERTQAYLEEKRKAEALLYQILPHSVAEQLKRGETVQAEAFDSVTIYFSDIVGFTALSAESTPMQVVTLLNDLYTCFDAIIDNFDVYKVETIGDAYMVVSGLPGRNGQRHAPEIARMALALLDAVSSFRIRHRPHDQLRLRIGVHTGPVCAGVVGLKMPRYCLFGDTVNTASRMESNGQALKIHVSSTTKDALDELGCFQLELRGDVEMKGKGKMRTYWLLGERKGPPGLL
Test: cell-based or functional assay
Numbered stars: 1 amine (or outer) side, 2 acyl side, 3 side chain; on linkers, the order of the positions; unused ones are H or OH. Square brackets hold non-standard residues; d marks the D form. * marks the point of attachment. Pro(trans-4-NH2) = O=C([C@@H]1C[C@@H](N[*:3])CN1[*:1])[*:2]; Sni = (S)-nipecotic acid, O=C([C@H]1CCCN([*:1])C1)[*:2]; Hyp = O=C(O)[C@@H]1C[C@@H](O)CN1; NMeL = CN[C@@H](CC(C)C)C(=O)O; Octanoyl = CCCCCCCC(=O)*
Give EC50 group, cGMP in GTM-3 cells for every item shown.

Record request: EC50 group, cGMP in GTM-3 cells value, item Octanoyl-[Sni]XLL[Hyp][NMeL]DRI-NH2 (not fully specified (some residues); printed as Occ-Sni-Mpa-leu-Leu-Hyp-Nml-Asp-Arg-Ile-) [JAL-1256]
≤ 15 µM

Record request: EC50 group, cGMP in GTM-3 cells value, item Octanoyl-AFGL[Pro(trans-4-NH2)]LDRI-NH2 (not fully specified (some residues); printed as Occ-ala-Phe-Gly-Leu-Tap-Leu-Asp-Arg-Ile-NH2) [JAL-1249]
≤ 1 µM

The reported numbers originate from patent US9187525B2.
